Tested on: VIM-2 metallo-beta-lactamase (Pseudomonas aeruginosa)
Assay: inhibition of VIM-2 nitrocefin hydrolysis – biochemical, epi-absorbance readout, Pseudomonas aeruginosa enzyme, primary screen (AID 1527);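 note: red hydrolysis product quenches plate fluorescence so inhibitors raise well fluorescence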
Settings: purified VIM-2, nitrocefin hydrolysis, epi-absorbance fluorescence; at 5.6 µM
Among all 290,000 compounds or so, about 2,600 (0.9%) were called active.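 Rule for the calls: active = inhibition above the mean of all tested compounds plus 3 SD, cutoff set per screening run (cut at about 7.5% in these data); inactive = the rest.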 Many of the other results were omitted from the sample, so actives are more common in it than they were.
Field 'call' accepts y (active), n (inactive)

Answer briefly: the call reported for CC(C)c1ccc2oc(=O)cc(CN3CCN(Cc4ccccc4)CC3)c2c1 in this assay. n

Status in this test for CN(C)C(=O)c1coc2nc3ccccc3nc12 ? n

What was the test verdict on Nc1cccc2c1C(=O)N(Cc1nnc(-c3ccccc3Br)o1)C2=O ? y

Per the records of this test, what outcome belongs to O=C(N/C(=C\c1ccc([N+](=O)[O-])cc1)C(=O)N1CCCCC1)c1ccco1 ? n

Record request — test call for CCOc1ccc(C)cc1S(=O)(=O)NC1CCCCCC1 n

GET /call?item= Cc1nnc(SCC(=O)Nc2cccc(N)c2)n1-c1ccccc1 returns the recorded outcome of this test. n

Can you look up the reported call for COC(=O)c1ccc(NC(=O)CSc2nnc(C3CC3)n2C)cc1 for me? n

Any idea what this test logged for Nc1cc(N)nc(SCc2cccc(F)c2)n1 ? n

Answer briefly: the call reported for COc1cccc2c(=O)n(CC(=O)N3CCCCCC3)ccc12 in this assay. n

Assay outcome for CN(C)/C=C1/C(=O)Nc2ccccc21 : what was it? n

Tell me the recorded outcome of this test for COc1cccc(CN(C)CC2CCCN(CCc3ccc(Cl)cc3)C2)c1OC (centres undefined) . n

Hi team, can someone confirm the assay call for Cc1ccccc1NC(=O)C1CCCN(C(=O)NCc2ccccc2)C1 (centres undefined) ? n

For this compound, state the assay outcome: CCn1c(=O)n(CC)c2cc(N3CCCC3)c(NC(=O)c3ccccc3Br)cc21 n

Each compound tested received a call. Report the one for Cc1cc(=O)oc2c(C(=O)c3ccccc3)c(OCC(N)=O)ccc12 . n

Kindly provide the recorded test outcome for the following compound: CCOc1c(Br)cc(/C=C2\C(=O)N(CCC#N)N=C2C)cc1OC n

Just curious, what result did O=C(CCl)NNc1nc(-c2ccccc2)c2cc(Cl)ccc2n1 get here? n

For CCN1CCN(C(=O)Cn2nc(C)n3c(cc4c(OC)cccc43)c2=O)CC1 , what call appears in the results of this test? y

Please let me know the test result on file for Oc1ccc2ccc3cccc[n+]3c2c1 . y

Could you kindly confirm the outcome this assay logged for CCOC(=O)N1CCN(Cc2nnc(-c3ccccc3Cl)o2)CC1 ? n

Please state the recorded outcome for this compound: Cn1cnnc1SCc1nnc(-c2ccccc2Br)o1 n

In this assay, the call recorded for COc1cc(CN2CCCC(C(=O)c3ccc(SC)cc3)C2)cc(Cl)c1O (centres undefined) was what? n

What was the test verdict on CNC(=O)c1cccc2nc3ccccc3nc12 ? y

Record request — test call for CSc1cccc(NC(=O)CN2C(=O)COc3ccc(S(=O)(=O)N4CCOCC4)cc32)c1 n

Name the outcome recorded for CCc1nn(CC(=O)N2CCN(CC)CC2)c(=O)c2cccn12 in the assay. n
